# credit: patent US20040038855A1

# Tested On: human Dopamine D2 receptor (Homo sapiens)
# Construct: purchased BioSignal, Inc. (Montreal, Canada)
# Sequence (P14416 whole entry): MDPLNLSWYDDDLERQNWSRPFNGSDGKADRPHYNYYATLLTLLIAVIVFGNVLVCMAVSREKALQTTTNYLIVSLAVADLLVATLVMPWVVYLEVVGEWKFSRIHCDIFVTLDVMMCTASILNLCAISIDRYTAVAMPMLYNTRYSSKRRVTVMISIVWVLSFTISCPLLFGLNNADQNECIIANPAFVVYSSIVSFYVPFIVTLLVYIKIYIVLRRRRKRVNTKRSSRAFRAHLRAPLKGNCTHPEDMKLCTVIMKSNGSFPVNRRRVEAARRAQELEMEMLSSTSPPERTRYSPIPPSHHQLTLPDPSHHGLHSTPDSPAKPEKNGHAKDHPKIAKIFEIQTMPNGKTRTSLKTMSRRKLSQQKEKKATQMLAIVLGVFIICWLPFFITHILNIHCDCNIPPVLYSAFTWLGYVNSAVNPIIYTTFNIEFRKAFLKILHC
# Assay Info: Binding affinity at the human dopamine D2 receptor
# Condition Description: Table 3c; read-out: hD2 Ki
Let's look at some compounds and their measured pKi.
Quick note: pKi values are minus log10 of concentrations in mol/L.

compound="CC(=O)Nc1cccc(C2CCN(CCCC(=O)c3ccc(C)c(C)c3)CC2)c1 [Example 57]" value_measured=5.22
compound="CC(C)C(=O)Nc1cccc(C2CCN(CC[C@H](OC(=O)c3cccc4ccccc34)c3ccccc3)CC2)c1 [Example 125]" value_measured=7.33
compound="COC(CCN1CCC(c2cccc(NC(=O)C(C)C)c2)CC1)c1ccc(C)cc1 (stereo not drawn) [Example 99]" value_measured=4.98
compound="CCCC(=O)Nc1cccc(C2CCN(CCCNC(=O)N3C(=O)NC(COC)=C(C(=O)OC)[C@@H]3c3ccc(F)c(F)c3)CC2)c1 [Example 44]" value_measured=5.44
compound="CC(C)C(=O)Nc1cccc(C2CCN(CC[C@H](Oc3cc(C(F)(F)F)ccc3F)c3ccccc3)CC2)c1 [Example 122]" value_measured=6.88
compound="CC(C)C(=O)Nc1cccc(C2CCN(CC[C@H](Oc3ccccc3)c3ccccc3)CC2)c1 [Example 105]" value_measured=6.33

Which value of pKi has been reported for CC(C)C(=O)Nc1cccc(C2CCN(CCCC(=O)c3ccc(Oc4ccccc4)cc3)CC2)c1 [Example 82] in the records?
5.70

# repeat for CC(=O)c1cccc(O[C@@H](CCN2CCC(c3cccc(NC(=O)C(C)C)c3)CC2)c2ccccc2)c1 [Example 141]
5.61

What would you report for COc1cc(C#N)ccc1O[C@@H](CCN1CCC(c2cccc(NC(=O)C(C)C)c2)CC1)c1ccccc1 [Example 118] ?
6.50
